Origin of the recorded values: patent US20080306040A1

For each record, write down the corresponding IC50.
Target: S. aureus 133 Translation
Test: S. aureus in vitro transcription-translation assay (firefly luciferase, S30 extract)
Conditions: 50% inhibition of the translation of firefly luciferase
Express your answer in µM, writing the number without its unit.

Form field IC50, entry NC[C@H](O)C[C@@H]1NC(=O)[C@@H](N)Cc2cc(ccc2O)-c2ccc(O)c(c2)C[C@@H](C(=O)O)NC1=O [Biphenomycin B, biphenomycin B, reference compound] : 1.5

Lab book: IC50 of NCCC[C@H](N)CNC(=O)C[C@H](CCCN)NC(=O)C[C@@H]1Cc2cccc(c2)-c2ccc(O)c(c2)C[C@H](N)C(=O)N[C@@H](CCCN)C(=O)N1 noted as 0.35

Kindly note the recorded IC50 for NCCC[C@H](N)CNC(=O)C[C@@H]1Cc2cccc(c2)-c2ccc(O)c(c2)C[C@H](N)C(=O)N[C@@H](CCCN)C(=O)N1 , which is 0.7

Consider NCCC[C@H](N)CNC(=O)C[C@@H](N)CCCNC(=O)[C@H](CCCN)NC(=O)C[C@@H]1Cc2cccc(c2)-c2ccc(O)c(c2)C[C@H](N)C(=O)N[C@@H](CCCN)C(=O)N1 . Its measured IC50 is 0.2
